Assign reverse-splicing fitness to each entry below.
B1: Azoarcus group I ribozyme (parent)
chain: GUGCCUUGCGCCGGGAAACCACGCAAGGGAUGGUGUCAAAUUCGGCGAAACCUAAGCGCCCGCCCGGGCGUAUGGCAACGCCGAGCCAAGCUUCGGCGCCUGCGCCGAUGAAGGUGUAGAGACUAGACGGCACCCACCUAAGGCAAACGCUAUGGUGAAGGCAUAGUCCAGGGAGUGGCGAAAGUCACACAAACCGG

- Variants of: B1
- Assay procedure: reverse-splicing fitness (ratio to wild type); higher = more active; in vitro selection; Mg2+ level not given
Reply with just the number.

Can you look up the measured reverse-splicing fitness of A111G A120C A145G C150U C169A U176G for me? 0.00456

Also check C82A A111U A120C A145G C150A C169A U176C 0.0279

Also check A111U A120U C150A C169A 0.00436

Also check C82A A111U A120G A145C C150A C169G 0.00858

Also check A120G C150A 0.0647

Also check A120C C150U C169U U176C 0.143

Also check C82A A111C A120G C150G C169G U176G 0.00538

Also check C82A A111U A120G C150A C169G 0.0102

Also check C82U A111C A145C C150U C169U U176C 0.00946

Also check C82U A145G C150G C169G U176G 0.00548

Also check C82G A111C A120C A145C C169U U176G 0.00508

Also check C82A A111C A120C A145C C150U C169A U176A 0.0145

Also check C82U A111U A120C A145U U176C 0.0165

Also check C82A A111U A120C A145G 0.0269

Also check C82A A111U A120C A145G U176C 0.0361

Also check C82G A120C A145C C169A U176A 0.0137

Also check C82G A111U A120G A145C C150A C169U U176A 0.0211

Also check C82U A111U A145G C150A C169A U176G 0.00768

Also check A111U A120C A145G C150A C169A 0.0121

Also check C82G A120G C150A C169U 0.00945

Also check C82A A120U C169A 0.00277

Also check A111C C169A 0.032
